Test system: total ATXN3 protein levels in SK-N-MC cells
ASSAY_METHOD_TEXT: ATXN3 Total Protein Assay (MSD)
Assay type: cell-based
TEST_PARAMETERS: Homo sapiens, 48 hours incubation
pIC50: −log10 of the molar value.
ASSAY_METRIC: pIC50

Request: Entry Cc1c(C[C@@H](N)CCO)sc2c(NCc3ccncc3)cnnc12 : reported pIC50 = ?
Result: 4.40 to 5.00

Request: Could you share which pIC50 value was measured for Cc1c(C[C@@H](N)CO)sc2c(NCc3ccccc3)cnnc12 ?
Result: 5.30 to 6.30

Request: pIC50 for Cc1c(C[C@@H](N)CO)sc2c(NCc3ccncc3)cnnc12 ?
Result: 4.40 to 5.00

Request: Given C[C@H](N)Cc1sc2c(NCc3ccncc3)cnnc2c1Cl , state its recorded pIC50.
Result: 4.40 to 5.00

Request: Consider the compound shown here: Cc1c(C[C@@H](N)CO)sc2c(NCc3ccncc3F)cnnc12 What is its recorded pIC50?
Result: 4.40 to 5.00

Request: For the compound shown here, Cc1c(C[C@H](C)N)sc2c(NCc3ccccc3)cnnc12 , give the reported pIC50.
Result: 5.30 to 6.30

Request: Quick one: pIC50 of Cc1c(C[C@H](C)N)sc2c(NCc3ccncc3F)cnnc12 ?
Result: 4.40 to 5.00

Request: For the compound shown here, Cc1c(C[C@H](C)N)sc2c(NCc3ccncc3)cnnc12 , give the reported pIC50.
Result: 5.00 to 5.30

Request: GET /values?readout=pIC50&item= Cc1c(C[C@H](C)N)sc2c(NCc3ccccc3F)cnnc12
Result: 5.00 to 5.30

Request: Entry under review: Cc1csc2c(NCc3ccncc3F)cnnc12 . Reported pIC50?
Result: 4.40 to 5.00

Request: Requested field: pIC50. Item: Clc1csc2c(NCc3ccncc3)cnnc12
Result: 4.40 to 5.00

Request: Requested read-out: pIC50. Entry: Cc1csc2c(NCc3ccncn3)cnnc12
Result: 4.40 to 5.00

Request: Requested field: pIC50. Item: C[C@H](N)Cc1sc2c(NCc3ccncc3)cnnc2c1Br
Result: 4.40 to 5.00

Request: Given the entry Cc1c(C[C@H](C)N)sc2c(NCc3ccncn3)cnnc12 , report its measured pIC50.
Result: 4.40 to 5.00

Request: So what does the record say about pIC50 for c1cc(CNc2cnnc3ccsc23)ccn1 ?
Result: 4.40 to 5.00

Request: # get_value(readout='pIC50', item= Brc1csc2c(NCc3ccncc3)cnnc12 )
Result: 4.40 to 5.00

Request: Sample C[C@H](N)Cc1cc2nnc(Br)c(NCc3ccccc3)c2s1 — what was its pIC50?
Result: 4.40 to 5.00

Request: // returns reported pIC50 for input Cc1c(C[C@@H](N)CCO)sc2c(NCc3ccccc3)cnnc12
Result: 5.30 to 6.30

Request: pIC50 lookup needed for CC[C@H](N)Cc1sc2c(NCc3ccncc3)cnnc2c1C , thanks.
Result: 4.40 to 5.00

Request: Looking for the measured pIC50 of Cc1csc2c(NCc3ccccc3F)cnnc12 , can you help?
Result: 4.40 to 5.00

Request: Given the compound Cc1c(C[C@@H](N)CO)sc2c(NCc3ccccc3F)cnnc12 , what is its reported pIC50?
Result: 4.40 to 5.00

Request: Dear colleague, I am looking for the recorded pIC50 of the following compound: Cc1c(C[C@@H](N)CO)sc2c(NCc3ccncn3)cnnc12
Result: 4.40 to 5.00
